B1: LINE1-mini (parent)
chain: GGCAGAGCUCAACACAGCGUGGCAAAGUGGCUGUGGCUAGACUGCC

- Variants of: B1
- PROTOCOL: self-cleavage, relative activity (ratio to wild type); higher = more cleavage; in vitro, sequencing; the parent is a self-cleaving ribozyme
Entries are sorted into classes by self-cleavage as follows: LOW: < 0.08; MEDIUM: ≥ 0.08 and < 0.2; HIGH: ≥ 0.2

Sample answers from the record:
- MUTANT NAME: "A4G A25G"
  LABEL: "HIGH"
- MUTANT NAME: "A6G U28C"
  LABEL: "LOW"
- MUTANT NAME: "A14C G44A"
  LABEL: "LOW"
- MUTANT NAME: "G30A G35A"
  LABEL: "MEDIUM"
- MUTANT NAME: "G7A C37U"
  LABEL: "MEDIUM"

Place this variant in its band: A4U G27U MEDIUM

Place this variant in its band: C15U G29C HIGH

Place this variant in its band: G19A G36C MEDIUM

Place this variant in its band: A6C G27C HIGH

Place this variant in its band: G5A C23G HIGH

Place this variant in its band: C15U C18G LOW

Place this variant in its band: G29C G35U LOW

Place this variant in its band: A4U U32C MEDIUM

Place this variant in its band: G7C A24G MEDIUM

Place this variant in its band: A24G G29A HIGH

Place this variant in its band: A12G G22A LOW

Place this variant in its band: C23G A41C LOW

Place this variant in its band: U20G A41U HIGH

Place this variant in its band: A4G C46G HIGH

Place this variant in its band: C3G U9C LOW

Place this variant in its band: G7A G27C MEDIUM

Entry source: the RNAGym collection of RNA variant scans (doi:10.7554/elife.90254)
